Assay: Cmax in CD1 mouse at 5 mg/kg, po
Assay type: ADME, organism-based
Parameters: dose 5 mg/kg, route oral
Conditions: in vivo
Entries and their Cmax values follow.
Write the numeric value and follow it with the unit.

| compound.structure.string | reported |
| --- | --- |
| CC(C)NC(=O)[C@@H]1C[C@@H](NC(=O)c2ccccc2)CN1C(=O)CN | 44 ng/mL |
| CC(=O)NCC(=O)N1C[C@H](NC(=O)c2ccccc2)C[C@H]1C(=O)O | 38 ng/mL |

Query: Fill in: Cmax of NCC(=O)N1C[C@H](NC(=O)c2ccccc2)C[C@H]1C(=O)NC1CC1 is ___
Result: 87 ng/mL
